Please provide measured TGI for the entries that follow.
system: K-562 leukemia; assay: NCI tumour cell line growth inhibition, 48 h

For each entry beneath this line, provide reported TGI.
1. COC(=O)c1ccc2c(c1)nc(-c1cc3ccccc3[nH]c1=O)n2-c1cc(C(C)(C)C)[nH]n1
2. CC1(C)CC(=O)C2=C(C1)c1c(ccc3ccccc13)NC2c1cn(Cc2ccc(Cl)cc2)c2ccccc12 (stereo unspecified)
3. CCCCC(=O)Nc1ccc2cc(C(=O)OC)c(ON3C(=O)c4ccccc4C3=O)nc2n1
4. COc1ccc(N2C(=O)C3ON(C(C(N)=O)c4ccccc4)C(c4ccc(-c5ccccc5)cc4)C3C2=O)cc1 (stereo unspecified)
5. CC(=O)c1ccc(NC(=O)CSc2nnc(-c3cc(-c4ccc(C)cc4)nc4ccccc34)o2)cc1
6. O=C(CO)CC(=O)C(=O)Nc1nc([N+](=O)[O-])cs1
7. CCCN(CCCC(NC(C)=O)C(=O)NCc1ccccc1)C(=O)NC (stereo unspecified)

Return:
1. > 100 µM
2. > 100 µM
3. > 100 µM
4. > 50 µM
5. > 100 µM
6. > 100 µM
7. > 100 µM
